target: T1, KIR2DL5-Ig fusion protein (KIR2DL5 extracellular domain fused to human IgG1 Fc) (human, UniProt Q8N109 22-240); test: BLI, Octet RED96; KIR2DL5-Ig captured on anti-human Fc biosensors, mAb in solution; global 1:1 fit
T1 construct: A D0-only fusion (H22-A128) also exists; also called KIR2DL5-human Ig fusion protein; KIR2DL5 DO-D2-Ig; not shown: human IgG1 Fc tag
T1 sequence (Q8N109 22-240): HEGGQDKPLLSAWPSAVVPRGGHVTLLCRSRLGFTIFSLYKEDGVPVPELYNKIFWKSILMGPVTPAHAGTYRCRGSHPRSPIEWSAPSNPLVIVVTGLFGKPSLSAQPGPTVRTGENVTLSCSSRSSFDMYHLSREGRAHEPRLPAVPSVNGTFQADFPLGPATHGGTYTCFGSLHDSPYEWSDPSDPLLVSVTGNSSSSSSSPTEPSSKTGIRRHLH
reported endpoint: Kd (nM)
The figure you give is taken to be in nM; do not add the unit.

Recorded results for 2 binders are shown here.
anti-KIR2DL5 mAb clone F8B30 (antibody, V domains shown, also called F8B30 (IgG1, κ)) VH: QIQLVQSGPELKKPGETVKISCKASGYTFTDYSMHWVKQAPGKGLKWMGWINTETGGPTYADDFKGRFAFSLETSATTAYLQINNLKNEDTATYFCSRDVDLYFDYWGQGTTLTVS VL: DIQMTQSPASLSASVGETVTITCRTSENIYSYLAWYQQKQGKSPQLLVYNAKTLVEGVPSRFSGSGSGTQFSVKINSLQPEDFGNYYCQHHYGIPFTFGGGTKLEIK	0.723
anti-KIR2DL5 mAb clone B33C12 (antibody, V domains shown, also called B33C12 (IgG2a, κ)) VH: QVQLQQSGAELVKPGASVKMSCKAFGYTFTSFPIEWMKQNHGKSLEWIGNFHPSNDDTKYNEKFNGKAKLTAETSSKTVYLELSRLTSDDSAVYYCARGSDYSFALDYWGQGTSVTVSS VL: GIVLTQSPASLAVSLGQRATISCRASESVDSYGYSFMHWYQQKPGQPPKLLIYRASNLKSGIPARFSGSGSRTDFTLTINPVEADDVATYYCQQSNEDPWTFGGGTKLEIK	0.359

Consider the additional binder presented here.
Task item: Data request, read-out Kd, for anti-KIR2DL5 mAb clone B7B23 (antibody, V domains shown, also called B7B23 (IgG1, κ)) VH: QVQLQQSGAELVRPGVSVKISCKGSGYTFTDYTMHWVKQSHAKSLEWIGVISPYYGDASYNQKFKGKATMTVDKSSSTAYMELARLTSEDSAIYYCARGLLRGFAYWGQGTLVTVS VL: DIVMTQSPSSKDMSVGQKVTMRCKSSKSLLNSSNQKKYLAWYQQKPGQSPKLLVYFASIRESGVPDRFIGSGSGTDFTLTISSVQVEDLADYFCQQHYSTPWTFGGG
Reply: 0.0413
